assay: Stability in mouse 4T1 cells assessed as parent compound remaining at 10 uM after 40 hrs by LC-MS/MS method; assay type: ADME, cell-based; settings: read-out: Stability
outcome-measure: remaining at 40 h, 10 µM
Include the unit after the number when you answer.

Example results:
> print(dat)
                            smiles.notation           outcome.measure  measured.result
1  O=S(=O)(c1cc(C(=S)Nc2cc(F)c(F)c(F)c2)c(Cl)cc1Cl)N1CCOCC1  remaining at 40 h, 10 µM             102%
2  O=C(Nc1cc(F)c(Cl)c(F)c1)c1cc(S(=O)(=O)N2CCOCC2)c(Cl)cc1Cl  remaining at 40 h, 10 µM             108%

For the next question, use this compound.
Item under review: `O=C(Nc1cccc(F)c1)c1cc(S(=O)(=O)N2CCOCC2)c(Cl)cc1Cl` . Reported remaining at 40 h, 10 µM?
79.5%

Each recorded value in this set is attributed to ChEMBL document CHEMBL3997796.
